# maps each entry to its Rel. activity (%)
System: N-acyl-L-proline acylase
test-summary: Substrate specificity: hydrolysis of N-acyl amino acids and proline derivatives
Format: biochemical, Comamonas testosteroni DSM 5416
experimental-setup: 20 mM substrate 1.0 ml in 2.0 ml batch, 30° C., pH 7.0; N-acetyl-L-proline = 100%; amino-acid analyzer
Report the figure in % without appending any unit label.

Completed entries (count: 2):
molecule=CC(=O)N[C@@H](CS)C(=O)O test_system="N-acyl-L-proline acylase" property="Rel. activity (%)" unit_text=% observed=0
molecule=CC(C)C[C@H](NC(=O)CCl)C(=O)O test_system="N-acyl-L-proline acylase" property="Rel. activity (%)" unit_text=% observed=1.9

// next item, Rel. activity (%) requested
N-acyl-L-proline acylase assay, molecule CC[C@H](C)[C@H](NC(=O)CCl)C(=O)O , recorded Rel. activity (%) = 0.5
